Target: HIV-1 RT-associated RNase H activity (Human immunodeficiency virus type 1 group M subtype B)
Construct: The 1:1 ration between the p66/p51 subunits was also verified
Assay: RNase H polymerase-independent cleavage assay
Conditions: compound concentration required to inhibit the HIV-1 RNase H activity by 50%
pIC50: −log10 of the molar value.
Would you mind telling me the reported pIC50 of each entry?

Answered examples (3):
- OC[C@H]1O[C@@H](O[C@@H]2OC=C[C@H]3[C@H](O)[C@@H]4O[C@]4(CO)[C@@H]23)[C@H](O)[C@@H](O)[C@@H]1O: < 4.00
- CO[C@H]1[C@@H]2C[C@@H]3OC[C@](O)([C@H]2[C@H](O[C@@H]2O[C@H](CO)[C@@H](O)[C@H](O)[C@H]2O)O3)[C@@H]1O [Compound 6, methylscutelloside]: < 4.00
- CC(=O)O[C@@]1(C)C[C@@H](O)C2C=CO[C@@H](O[C@@H]3O[C@H](CO)[C@@H](O)[C@H](O)[C@H]3O)C21 (stereo partly shown) [Compound 7, ajugoside]: < 4.00

Please look at the following compound next.
Report pIC50 for CCOC(=O)C(=O)CC(=O)/C=C/c1cccn1Cc1ccccc1Cl [RDS1759, reference compound] please. 5.14

---

Biological target: HIV-1 RT-associated RNase H activity (Human immunodeficiency virus type 1 group M subtype B, UniProt P04585)
Construct: The 1:1 ration between the p66/p51 subunits was also verified; made in house; host or cells: E. coli strain M15 with the p6HRT-prot vector
Experiment: RNase H polymerase-independent cleavage assay
Format: biochemical
Details: in the presence of 100 µM compound concentration; read-out: HIV-1 RNase H percentage of control
readout: remaining activity at 100 µM (%)
Numbers only, in %.

Answered examples (3):
• CO[C@H]1[C@@H]2C=CO[C@@H](O[C@@H]3O[C@H](CO)[C@@H](O)[C@H](O)[C@H]3O)[C@@H]2[C@@]2(CO)O[C@@H]12 = 100
• OCC1=C[C@@H](O)[C@@H]2C=CO[C@@H](O[C@@H]3O[C@H](CO)[C@@H](O)[C@H](O)[C@H]3O)[C@H]12 = 100
• CC(=O)O[C@@]1(C)C[C@@H](O)C2C=CO[C@@H](O[C@@H]3O[C@H](CO)[C@@H](O)[C@H](O)[C@H]3O)C21 (stereo partly drawn) [Compound 7, ajugoside] = 100

Hey, can you go through the list below and give me remaining activity at 100 µM for every item?
1. C[C@]1(OC(=O)/C=C\c2ccccc2)C[C@@H](O)C2C=CO[C@@H](O[C@@H]3O[C@H](CO)[C@@H](O)[C@H](O)[C@H]3O)C21 (stereo partly drawn) [Compound 13, trifoliatoside B]
2. OC[C@H]1O[C@@H](O[C@@H]2OC=C[C@H]3[C@H](O)[C@@H]4O[C@]4(CO)[C@@H]23)[C@H](O)[C@@H](O)[C@@H]1O
3. O=c1c(OC2O[C@H](CO)[C@@H](O)[C@H](O)[C@H]2O)c(-c2ccc(O)cc2)oc2cc(O)cc(O)c12 (stereo partly drawn) [Compound 11, kaempferol-3-O-glucopyranoside]
4. C[C@]1(O)C[C@@H](O)[C@@H]2C=CO[C@@H](O[C@@H]3O[C@H](CO)[C@@H](O)[C@H](O)[C@H]3O)[C@@H]21
5. COC1C2C=COC(OC3OC(CO)C(O)C(O)C3O)C2C2(O)COC12 (stereo not drawn) [Compound 5, trifoliatoside A]
6. C[C@@H]1O[C@@H](OC[C@H]2O[C@@H](Oc3c(-c4ccc(O)c(O)c4)oc4cc(O)cc(O)c4c3=O)[C@H](O)[C@@H](O)[C@@H]2O)[C@H](O)[C@H](O)[C@H]1O

92
100
100
100
93
100

---

Would you mind telling me the reported pIC50 of each entry?
Biological target: HIV-1 IN in the presence of LEDGF/p75 (Human immunodeficiency virus type 1 group M subtype B)
Construct: Recombinant 6xHis tagged IN protein was expressed and purified as described previously; 6xHis
Experiment: HTRF LEDGF-dependent integrase assay
Details: concentration required to inhibit IN catalytic activities, in the presence of LEDGF, by 50%
One number for each entry, as −log10 of the molar value.

- COC1C2C=COC(OC3OC(CO)C(O)C(O)C3O)C2C2(O)COC12 (stereo not shown) [Compound 5, trifoliatoside A]: 4.02
- CO[C@H]1[C@@H]2C[C@@H]3OC[C@](O)([C@H]2[C@H](O[C@@H]2O[C@H](CO)[C@@H](O)[C@H](O)[C@H]2O)O3)[C@@H]1O [Compound 6, methylscutelloside]: 4.00
- C[C@@H]1O[C@@H](OC[C@H]2O[C@@H](Oc3c(-c4ccc(O)c(O)c4)oc4cc(O)cc(O)c4c3=O)[C@H](O)[C@@H](O)[C@@H]2O)[C@H](O)[C@H](O)[C@H]1O: 6.48
- CC(=O)O[C@@]1(C)C[C@@H](O)C2C=CO[C@@H](O[C@@H]3O[C@H](CO)[C@@H](O)[C@H](O)[C@H]3O)C21 (stereo partly shown) [Compound 7, ajugoside]: 4.13

Please look at the following molecule next.
Report pIC50 for C[C@]1(OC(=O)/C=C\c2ccccc2)C[C@@H](O)C2C=CO[C@@H](O[C@@H]3O[C@H](CO)[C@@H](O)[C@H](O)[C@H]3O)C21 (stereo partly shown) [Compound 13, trifoliatoside B] please. 5.22

---

Biological target: HIV-1 IN in the presence of LEDGF/p75 (Human immunodeficiency virus type 1 group M subtype B, UniProt P04585)
Construct: Recombinant 6xHis tagged IN protein was expressed and purified as described previously; 6xHis; made in house; host or cells: Escherichia coli BL21 (DE3) for IN
Assay: HTRF LEDGF-dependent integrase assay
Type: biochemical
Conditions: in the presence of 100 µM compound concentration; read-out: HIV-1 IN LEDGF-dependent percentage of control
Would you mind telling me the reported remaining activity at 100 µM of each entry?
Answers are plain numbers, in %.

Answered examples (4):
* OCC1=C[C@@H](O)[C@@H]2C=CO[C@@H](O[C@@H]3O[C@H](CO)[C@@H](O)[C@H](O)[C@H]3O)[C@H]12 | 100
* CO[C@H]1[C@@H]2C=CO[C@@H](O[C@@H]3O[C@H](CO)[C@@H](O)[C@H](O)[C@H]3O)[C@@H]2[C@@]2(CO)O[C@@H]12 | 80
* C[C@]1(O)C[C@@H](O)[C@@H]2C=CO[C@@H](O[C@@H]3O[C@H](CO)[C@@H](O)[C@H](O)[C@H]3O)[C@@H]21 | 77
* C[C@]1(OC(=O)/C=C/c2ccccc2)C[C@@H](O)C2C=CO[C@@H](O[C@@H]3O[C@H](CO)[C@@H](O)[C@H](O)[C@H]3O)C21 (some centres unmarked) [Compound 12, laterioside] | 80

Please look at the following molecule next.
Report remaining activity at 100 µM for OC[C@H]1O[C@@H](O[C@@H]2OC=C[C@H]3[C@H](O)[C@@H]4O[C@]4(CO)[C@@H]23)[C@H](O)[C@@H](O)[C@@H]1O please. 100

---

Target: HIV-1 RT-associated RNase H activity (Human immunodeficiency virus type 1 group M subtype B)
Construct: The 1:1 ration between the p66/p51 subunits was also verified
Test: RNase H polymerase-independent cleavage assay
Conditions: compound concentration required to inhibit the HIV-1 RNase H activity by 50%
Would you mind telling me the reported IC50 of each entry?

• CO[C@H]1[C@@H]2C=CO[C@@H](O[C@@H]3O[C@H](CO)[C@@H](O)[C@H](O)[C@H]3O)[C@@H]2[C@@]2(CO)O[C@@H]12 = > 100 µM

Hey, can you go through the list below and give me IC50 for every item?
1. OCC1=C[C@@H](O)[C@@H]2C=CO[C@@H](O[C@@H]3O[C@H](CO)[C@@H](O)[C@H](O)[C@H]3O)[C@H]12
2. C[C@]1(OC(=O)/C=C/c2ccccc2)C[C@@H](O)C2C=CO[C@@H](O[C@@H]3O[C@H](CO)[C@@H](O)[C@H](O)[C@H]3O)C21 (stereo partly drawn) [Compound 12, laterioside]

["> 100 µM", "> 100 µM"]

---

Target: HIV-1 RT-associated RNase H activity (Human immunodeficiency virus type 1 group M subtype B, UniProt P04585)
Construct: The 1:1 ration between the p66/p51 subunits was also verified; made in house; host or cells: E. coli strain M15 with the p6HRT-prot vector
Assay: RNase H polymerase-independent cleavage assay
Format: biochemical
Details: in the presence of 100 µM compound concentration; read-out: HIV-1 RNase H percentage of control
readout: remaining activity at 100 µM
For clarity, give the value followed by its unit.

Hey, can you go through the list below and give me remaining activity at 100 µM for every item?
1. CC1OC(Oc2cc(O)c3c(=O)c(OC4OC(CO)C(O)C(O)C4O)c(-c4ccc(O)cc4)oc3c2)C(O)C(O)C1O (stereo not drawn) [Compound 9]
2. CO[C@H]1[C@@H]2C[C@@H]3OC[C@](O)([C@H]2[C@H](O[C@@H]2O[C@H](CO)[C@@H](O)[C@H](O)[C@H]2O)O3)[C@@H]1O [Compound 6, methylscutelloside]
3. C[C@]1(OC(=O)/C=C/c2ccccc2)C[C@@H](O)C2C=CO[C@@H](O[C@@H]3O[C@H](CO)[C@@H](O)[C@H](O)[C@H]3O)C21 (stereo partly drawn) [Compound 12, laterioside]

1: 100%; 2: 100%; 3: 100%
